Reported pIC50 on HPK1 (Homo sapiens (Human), UniProt Q92918) for assorted compounds, compiled from publications.
pIC50: −log10 of the molar value.

Answered examples (4):
>>> observed_result("C/C(Nc1cc(C)n(C[C@H](C)O)n1)=C1/C(=O)Nc2cnc(-c3c(C)cccc3F)cc21")
"> 7.30"
>>> observed_result("COc1cnc2[nH]ccc2c1COc1nc(-c2cc(C)c3c(c2)CN(C)CC3)cnc1N")
8.09
>>> observed_result("CN1CCc2c(cc(Nc3ncc4ccnc(N5CC6CC6C5)c4n3)c(=O)n2C)C1 (stereo not shown)")
7.25
>>> observed_result("CNCc1cc(F)c(-c2cc3c(-c4ccc5c(c4)OCC4CN(C)CCN54)c[nH]c3cn2)c(F)c1 (stereo not shown)")
"≥ 8.00"

What value of pIC50 has been reported for the following compound? C[C@@H](c1nc(Nc2ccc(-c3cnc4cc(F)ccn34)c3c2C(=O)NC3)ccc1[C@H]1CCOC1)N(C)C (single isomer, unassigned) 6.00 to 7.00

What value of pIC50 has been reported for the following compound? Cn1ccc2c(-c3ncc(Nc4ccc(N5CCC[C@H](C(C)(C)O)C5)cn4)c4c3CNC4=O)ccnc21 > 7.00

What value of pIC50 has been reported for the following compound? C[C@@H]1CN(c2c(NC(=O)c3ccc(=O)n(-c4c(F)cccc4F)n3)ccc3nn(C4(C(F)(F)F)CC4)cc23)C[C@@H]1N > 7.00
